Quick reference: Activity of the listed items.
Biological target: Melanocyte-stimulating hormone receptor (Mus musculus) (UniProt Q01727)
Sequence (Q01727 whole entry, looked up): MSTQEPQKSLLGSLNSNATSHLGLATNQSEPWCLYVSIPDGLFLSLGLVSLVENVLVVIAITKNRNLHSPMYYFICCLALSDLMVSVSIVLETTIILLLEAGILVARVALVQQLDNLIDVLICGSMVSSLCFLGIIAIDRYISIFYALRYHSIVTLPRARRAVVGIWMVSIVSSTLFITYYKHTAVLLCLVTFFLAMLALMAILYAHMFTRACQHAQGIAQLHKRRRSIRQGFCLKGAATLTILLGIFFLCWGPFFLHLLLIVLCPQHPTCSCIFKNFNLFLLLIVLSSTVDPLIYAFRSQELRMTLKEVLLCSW
Assay: Agonist activity at mouse MC1R expressed in HEK293 cells at 100 uM incubated for 2 hrs by AlphaScreen cAMP assay relative to NDP-MSH
Format: functional, cell-based
Square brackets hold non-standard residues; d marks the D form. Peptide text beside a SMILES is read from it. hPhe = N[C@@H](CCc1ccccc1)C(=O)O; Nle = CCCC[C@H](N)C(=O)O; Dap = NC[C@H](N)C(=O)O

Compound: C[C@@H]1NC(=O)[C@H](CCCNC(=N)N)NC(=O)[C@H](CCc2ccccc2)NC(=O)[C@H](Cc2ccccc2)NC(=O)[C@H](CCCNC(=N)N)NC(=O)[C@@H]2CCCN2C(=O)[C@H]2CCCN2C(=O)[C@H](Cc2ccccc2)NC1=O (cyclo(RF[hPhe]RAF[dP]P))
Readout Label: Activity
Val: 25%

Compound: CCCC[C@@H]1NC(=O)[C@H](C)NC(=O)[C@H](CCCNC(=N)N)NC(=O)[C@H](Cc2ccccc2)NC(=O)[C@H](Cc2ccccc2)NC(=O)[C@H](CCCNC(=N)N)NC(=O)[C@@H]2CCCN2C(=O)[C@H]2CCCN2C1=O (cyclo(RFFRA[Nle][dP]P))
Readout Label: Activity
Val: < 20%

Compound: CCCC[C@@H]1NC(=O)[C@H](CO)NC(=O)[C@H](CN)NC(=O)[C@H](Cc2ccccc2)NC(=O)[C@H](Cc2ccccc2)NC(=O)[C@H](CCCNC(=N)N)NC(=O)[C@@H]2CCCN2C(=O)[C@H]2CCCN2C1=O (cyclo(RFF[Dap]S[Nle][dP]P))
Readout Label: Activity
Val: < 20%

The compound CCCC[C@@H]1NC(=O)[C@H](C)NC(=O)[C@H](CN)NC(=O)[C@H](CCc2ccccc2)NC(=O)[C@H](Cc2ccccc2)NC(=O)[C@H](CCCNC(=N)N)NC(=O)[C@@H]2CCCN2C(=O)[C@H]2CCCN2C1=O (cyclo(RF[hPhe][Dap]A[Nle][dP]P)) showed Activity equal to < 20%

====

Target: Melanocortin receptor 3 (Mus musculus)
Sequence (P33033 whole entry): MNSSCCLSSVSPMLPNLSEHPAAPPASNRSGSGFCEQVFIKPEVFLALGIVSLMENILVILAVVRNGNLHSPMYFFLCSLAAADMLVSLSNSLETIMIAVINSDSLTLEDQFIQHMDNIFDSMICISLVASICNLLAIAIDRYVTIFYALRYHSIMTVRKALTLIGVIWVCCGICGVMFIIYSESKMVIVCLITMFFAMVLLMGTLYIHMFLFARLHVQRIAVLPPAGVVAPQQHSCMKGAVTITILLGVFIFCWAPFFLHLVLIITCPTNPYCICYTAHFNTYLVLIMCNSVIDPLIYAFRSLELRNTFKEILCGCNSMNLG
Assay: Antagonist activity at mouse MC3R expressed in HEK293 cells assessed as reduction in NDP-MSH-induced response incubated for 2 hrs by AlphaScreen cAMP assay based Schild analysis
Assay type: functional, cell-based
Conditions: read-out: pA2 (converted)
Square brackets hold non-standard residues; d marks the D form. Peptide text beside a SMILES is read from it. hPhe = N[C@@H](CCc1ccccc1)C(=O)O; Nle = CCCC[C@H](N)C(=O)O
Simple rule here: Kb less than 80 nM is true (1), otherwise false (0).

Check out these entries, answers already filled in.
Compound: N=C(N)NCCC[C@@H]1NC(=O)[C@@H]2CCCN2C(=O)[C@H]2CCCN2C(=O)[C@H](Cc2ccccc2)NC(=O)[C@H](CO)NC(=O)[C@H](CN)NC(=O)[C@H](CCc2ccccc2)NC(=O)[C@H](Cc2ccccc2)NC1=O
Measured On: Melanocortin receptor 3 (Mus musculus)
Label Value: true (1)
//
Compound: CCCC[C@@H]1NC(=O)[C@H](CO)NC(=O)[C@H](CCCNC(=N)N)NC(=O)[C@H](CCc2ccccc2)NC(=O)[C@H](Cc2ccccc2)NC(=O)[C@H](CCCNC(=N)N)NC(=O)[C@@H]2CCCN2C(=O)[C@H]2CCCN2C1=O (cyclo(RF[hPhe]RS[Nle][dP]P))
Measured On: Melanocortin receptor 3 (Mus musculus)
Label Value: true (1)
//
Compound: CCCC[C@@H]1NC(=O)[C@H](CO)NC(=O)[C@H](CC(N)=O)NC(=O)[C@H](CCc2ccccc2)NC(=O)[C@H](Cc2ccccc2)NC(=O)[C@H](CCCNC(=N)N)NC(=O)[C@@H]2CCCN2C(=O)[C@H]2CCCN2C1=O (cyclo(RF[hPhe]NS[Nle][dP]P))
Measured On: Melanocortin receptor 3 (Mus musculus)
Label Value: false (0)

Inquiry: Kb under 80 nM? Item: "N=C(N)NCCC[C@@H]1NC(=O)[C@@H]2CCCN2C(=O)[C@H]2CCCN2C(=O)[C@H](Cc2ccccc2)NC(=O)[C@H](CO)NC(=O)[C@H](CC(N)=O)NC(=O)[C@H](CCc2ccccc2)NC(=O)[C@H](Cc2ccccc2)NC1=O"
Reply text: false (0)
